system: T47D (Breast Carcinoma); test: combination Emax (second highest fraction inhibited in the dose matrix, 72 h); higher = more inhibition; extreme values may be limits of the assay
endpoint_label: combination Emax
// return just the number, without any unit appended

[[record]]
molecule = "Cc1cc2ncnn2cc1Nc1ncc2c(n1)n(C1CCOCC1)c(=O)n2C [AZD7648] + C[C@@H]1COCCN1C2=NC(=NC(=C2)C3(CC3)[S@](=N)(=O)C)C4=C5C=CNC5=NC=C4 [AZD6738] (first compound max 10 µM, 7x7, partner max 10 µM)"
endpoint_label = "combination Emax"
observed_result = 0.464


Item Cn1cnc2c(F)c(Nc3ccc(Br)cc3Cl)c(C(=O)NOCCO)cc21 [Selumetinib] + CCN(CCO)CCCOc1ccc2c(Nc3cc(CC(=O)Nc4cccc(F)c4)[nH]n3)ncnc2c1 [AZD2811] (first compound max 10 µM, 7x7, partner max 1 µM) with T47D (Breast Carcinoma) - combination Emax? 0.29

---

system: SNU-423 (Hepatocellular Carcinoma); experiment: combination Emax (second highest fraction inhibited in the dose matrix, 72 h); higher = more inhibition; extreme values may be limits of the assay
endpoint_label: combination Emax
// return just the number, without any unit appended

[[record]]
compound = "CC1(C)CCC(CN2CCN(c3ccc(C(=O)NS(=O)(=O)c4ccc(NCC5CCOCC5)c([N+](=O)[O-])c4)c(Oc4cnc5[nH]ccc5c4)c3)CC2)=C(c2ccc(Cl)cc2)C1 [Venetoclax] + COc1cc(Nc2ncc3c(n2)-c2ccc(Cl)cc2C(c2c(F)cccc2OC)=NC3)ccc1C(=O)O [Alisertib] (first compound max 1 µM, 7x7, partner max 10 µM)"
endpoint_label = "combination Emax"
observed_result = 0.361

[[record]]
compound = "Cc1c2c(nn1C)CSCc1cc(n(C)n1)CSc1cc(c3ccccc3c1)OCCCc1c(C(=O)O)n(C)c3c-2c(Cl)ccc13 [AZD5991] + Cc1cc2ncnn2cc1Nc1ncc2c(n1)n(C1CCOCC1)c(=O)n2C [AZD7648] (first compound max 1 µM, 7x7, partner max 10 µM)"
endpoint_label = "combination Emax"
observed_result = 0.362


What does the data say about its combination Emax? Entry: CCN(CCO)CCCOc1ccc2c(Nc3cc(CC(=O)Nc4cccc(F)c4)[nH]n3)ncnc2c1 [AZD2811] + O=C(c1cc(Cc2n[nH]c(=O)c3ccccc23)ccc1F)N1CCN(C(=O)C2CC2)CC1 [Olaparib] (first compound max 1 µM, 7x7, partner max 10 µM) 0.264

What does the data say about its combination Emax? Entry: Cc1c2c(nn1C)CSCc1cc(n(C)n1)CSc1cc(c3ccccc3c1)OCCCc1c(C(=O)O)n(C)c3c-2c(Cl)ccc13 [AZD5991] + CCN(CCO)CCCOc1ccc2c(Nc3cc(CC(=O)Nc4cccc(F)c4)[nH]n3)ncnc2c1 [AZD2811] (first compound max 1 µM, 7x7, partner max 1 µM) 0.335

What does the data say about its combination Emax? Entry: Cc1c2c(nn1C)CSCc1cc(n(C)n1)CSc1cc(c3ccccc3c1)OCCCc1c(C(=O)O)n(C)c3c-2c(Cl)ccc13 [AZD5991] + CC(=O)O[C@H]1C(=O)[C@@]2(C)[C@H]([C@H](OC(=O)c3ccccc3)[C@]3(O)C[C@H](OC(=O)[C@H](O)[C@@H](NC(=O)c4ccccc4)c4ccccc4)C(C)=C1C3(C)C)[C@]1(OC(C)=O)CO[C@@H]1C[C@@H]2O [Paclitaxel] (first compound max 1 µM, 7x7, partner max 3 µM) 0.672

What does the data say about its combination Emax? Entry: COc1cc2ncnc(Nc3ccc(F)c(Cl)c3)c2cc1OCCCN1CCOCC1 [Gefitinib] + CC(C)n1c(=O)n(C)c2cnc3cc(F)c(-c4ccc(OCCCN5CCCCC5)nc4)cc3c21 [AZD1390] (first compound max 10 µM, 7x7, partner max 0.3 µM) 0.126

---

tested on: MOLT-13 (T-Lymphoblastic Leukemia); assay: Bliss excess, mean over the matrix (fraction); higher = more synergy
Bliss excess for assorted molecules

// below: answered molecules
[[record]]
molecule = "CC1(C)CCC(CN2CCN(c3ccc(C(=O)NS(=O)(=O)c4ccc(NCC5CCOCC5)c([N+](=O)[O-])c4)c(Oc4cnc5[nH]ccc5c4)c3)CC2)=C(c2ccc(Cl)cc2)C1 [Venetoclax] + CCN(CCO)CCCOc1ccc2c(Nc3cc(CC(=O)Nc4cccc(F)c4)[nH]n3)ncnc2c1 [AZD2811] (first compound max 1 µM, 7x7, partner max 1 µM)"
endpoint_label = "Bliss excess"
observed_result = 0.055

[[record]]
molecule = "COc1cccc(OCCCN)c1-c1cc(Nc2cnc(C#N)cn2)n[nH]1 [Prexasertib] + CCc1c2c(nc3ccc(O)cc13)-c1cc3c(c(=O)n1C2)COC(=O)[C@]3(O)CC [SN-38] (first compound max 1 µM, 7x7, partner max 0.3 µM)"
endpoint_label = "Bliss excess"
observed_result = -0.0112

[[record]]
molecule = "Cc1cc2ncnn2cc1Nc1ncc2c(n1)n(C1CCOCC1)c(=O)n2C [AZD7648] + CN(C)CCCOc1ccc(-c2ccc3ncc4c(c3c2)n(C2CCOCC2)c(=O)n4C)cn1 [AZD0156] (first compound max 10 µM, 7x7, partner max 1 µM)"
endpoint_label = "Bliss excess"
observed_result = 0.0053


For the next question, use this molecule.
What does the data say about its Bliss excess? Entry: Cn1cnc2c(F)c(Nc3ccc(Br)cc3Cl)c(C(=O)NOCCO)cc21 [Selumetinib] + CC(C)n1c(=O)n(C)c2cnc3cc(F)c(-c4ccc(OCCCN5CCCCC5)nc4)cc3c21 [AZD1390] (first compound max 10 µM, 7x7, partner max 0.3 µM) 0.0447

---

test system: T84 (Colorectal Carcinoma); assay: combination Emax (second highest fraction inhibited in the dose matrix, 72 h); higher = more inhibition; extreme values may be limits of the assay
combination Emax for assorted compounds
// return just the number, without any unit appended

// below: answered compounds
[[record]]
compound = "N#Cc1cnc(Nc2cc(NC[C@H]3CNCCO3)c(C(F)(F)F)cn2)cn1 [SRA737] + O=c1[nH]cc(F)c(=O)[nH]1 [5-Fluorouracil] (first compound max 10 µM, 7x7, partner max 20 µM)"
endpoint_label = "combination Emax"
observed_result = 0.785

[[record]]
compound = "CN(CCO)CC[C@H](CSc1ccccc1)Nc1ccc(S(=O)(=O)NC(=O)c2ccc(N3CCC([C@@H](O)c4ccccc4-c4ccc(Cl)cc4)CC3)cc2)cc1S(=O)(=O)C(F)(F)F [AZD4320] + CS(=O)(=O)CCNCc1ccc(-c2ccc3ncnc(Nc4ccc(OCc5cccc(F)c5)c(Cl)c4)c3c2)o1 [Lapatinib] (first compound max 1 µM, 7x7, partner max 10 µM)"
endpoint_label = "combination Emax"
observed_result = 0.886


For the next question, use this compound.
Item Cc1c2c(nn1C)CSCc1cc(n(C)n1)CSc1cc(c3ccccc3c1)OCCCc1c(C(=O)O)n(C)c3c-2c(Cl)ccc13 [AZD5991] + C=CCn1c(=O)c2cnc(Nc3ccc(N4CCN(C)CC4)cc3)nc2n1-c1cccc(C(C)(C)O)n1 [AZD1775] (first compound max 1 µM, partner max 1 µM) with T84 (Colorectal Carcinoma) - combination Emax? 0.631

---

tested on: PL4 (Pancreatic Carcinoma); assay: Bliss excess, mean over the matrix (fraction); higher = more synergy
Bliss excess for assorted molecules
// return just the number, without any unit appended

[[record]]
molecule = "CC1(C)CCC(CN2CCN(c3ccc(C(=O)NS(=O)(=O)c4ccc(NCC5CCOCC5)c([N+](=O)[O-])c4)c(Oc4cnc5[nH]ccc5c4)c3)CC2)=C(c2ccc(Cl)cc2)C1 [Venetoclax] + COc1cc(Nc2ncc3c(n2)-c2ccc(Cl)cc2C(c2c(F)cccc2OC)=NC3)ccc1C(=O)O [Alisertib] (first compound max 1 µM, 7x7, partner max 10 µM)"
observed_result = -0.0531


What does the data say about its Bliss excess? Entry: CN(CCO)CC[C@H](CSc1ccccc1)Nc1ccc(S(=O)(=O)NC(=O)c2ccc(N3CCC([C@@H](O)c4ccccc4-c4ccc(Cl)cc4)CC3)cc2)cc1S(=O)(=O)C(F)(F)F [AZD4320] + C=CCn1c(=O)c2cnc(Nc3ccc(N4CCN(C)CC4)cc3)nc2n1-c1cccc(C(C)(C)O)n1 [AZD1775] (first compound max 1 µM, partner max 1 µM) -0.0586

What does the data say about its Bliss excess? Entry: NC1(C(=O)N[C@@H](CCO)c2ccc(Cl)cc2)CCN(c2ncnc3[nH]ccc23)CC1 [Capivasertib] + Cn1cnc2c(F)c(Nc3ccc(Br)cc3Cl)c(C(=O)NOCCO)cc21 [Selumetinib] (first compound max 10 µM, 7x7, partner max 10 µM) -0.0314

What does the data say about its Bliss excess? Entry: NC1(C(=O)N[C@@H](CCO)c2ccc(Cl)cc2)CCN(c2ncnc3[nH]ccc23)CC1 [Capivasertib] + CC(C)n1c(=O)n(C)c2cnc3cc(F)c(-c4ccc(OCCCN5CCCCC5)nc4)cc3c21 [AZD1390] (first compound max 10 µM, 7x7, partner max 0.3 µM) -0.0225

What does the data say about its Bliss excess? Entry: CC1(C)CCC(CN2CCN(c3ccc(C(=O)NS(=O)(=O)c4ccc(NCC5CCOCC5)c([N+](=O)[O-])c4)c(Oc4cnc5[nH]ccc5c4)c3)CC2)=C(c2ccc(Cl)cc2)C1 [Venetoclax] + C[C@@H](Nc1cc(F)cc(F)c1)c1cc(C(=O)N(C)C)cc2c(=O)cc(N3CCOCC3)oc12 [AZD8186] (first compound max 1 µM, 7x7, partner max 3 µM) -0.049

What does the data say about its Bliss excess? Entry: CN(CCO)CC[C@H](CSc1ccccc1)Nc1ccc(S(=O)(=O)NC(=O)c2ccc(N3CCC([C@@H](O)c4ccccc4-c4ccc(Cl)cc4)CC3)cc2)cc1S(=O)(=O)C(F)(F)F [AZD4320] + Cn1cnc2c(F)c(Nc3ccc(Br)cc3Cl)c(C(=O)NOCCO)cc21 [Selumetinib] (first compound max 1 µM, 7x7, partner max 3 µM) 0.0473
